Data credit: paper PMC12663734

measurement target: PVY CP^P154A (Potato virus Y, UniProt P18247, P2950A)
Construct: 6xHis tag (within the N-terminal pET-32a(+) fusion leader; the Trx and S-tag parts are inferred from the vector and the ~50 kDa band) (N, cleaved yes)
Sequence (P18247 2797-3063 P2950A): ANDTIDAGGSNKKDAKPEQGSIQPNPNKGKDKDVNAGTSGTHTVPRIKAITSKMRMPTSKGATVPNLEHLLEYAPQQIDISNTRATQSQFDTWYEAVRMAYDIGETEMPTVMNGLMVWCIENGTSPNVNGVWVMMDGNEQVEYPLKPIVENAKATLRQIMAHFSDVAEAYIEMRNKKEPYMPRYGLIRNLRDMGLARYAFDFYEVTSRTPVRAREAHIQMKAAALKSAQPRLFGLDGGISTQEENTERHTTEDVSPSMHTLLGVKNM
test protocol: MST binding to mutant PVY CP^P154A
property label: Kd (µM)
One number for each entry, in µM.

Answer for every listed entry: what is its Kd? The entries follow.
1. NC(=O)c1ncn([C@@H]2O[C@H](CO)[C@@H](O)[C@H]2O)n1 [RBV, ribavirin, reference compound]
2. COc1ccc(/C=C2\Oc3cc(OCC(=O)NS(=O)(=O)c4ccc(Br)cc4)ccc3C2=O)cc1 [D13]

Solution:
[210, 284]

* * *

measurement target: PVY CP (Potato virus Y, UniProt P18247)
Construct: 6xHis tag (within the N-terminal pET-32a(+) fusion leader; the Trx and S-tag parts are inferred from the vector and the ~50 kDa band) (N, cleaved yes)
test protocol: biochemical
Kindly state pKd for each of the entries shown.
Numbers only, as −log10 of the molar value.

| compound | measurement target | assay result |
| --- | --- | --- |
| NC(=O)c1ncn([C@@H]2O[C@H](CO)[C@@H](O)[C@H]2O)n1 [RBV, ribavirin, reference compound] | PVY CP (Potato virus Y, UniProt P18247) | 4.30 |

Turning now to a further record.
Exercise: Jot down pKd (PVY CP (Potato virus Y, UniProt P18247)) of `COc1ccc(/C=C2\Oc3cc(OCC(=O)NS(=O)(=O)c4ccc(Br)cc4)ccc3C2=O)cc1` .
Solution: 4.80
